Test system: HCI01 (cells of a triple-negative basal-like breast cancer xenograft)
Experiment: cell viability of combination (% of vehicle); higher = less cytotoxic
Conditions: 1 µM; 72 h; partner dose: 10 nM
property.label: cell viability of combination

[
  {
    "compound": "CS(=O)(=O)CCNCc1ccc(-c2ccc3ncnc(Nc4ccc(OCc5cccc(F)c5)c(Cl)c4)c3c2)o1.Cc1ccc(S(=O)(=O)O)cc1.Cc1ccc(S(=O)(=O)O)cc1 [Lapatinib Ditosylate] + CC(C)C[C@H](NC(=O)[C@H](CCc1ccccc1)NC(=O)CN1CCOCC1)C(=O)N[C@@H](Cc1ccccc1)C(=O)N[C@@H](CC(C)C)C(=O)[C@@]1(C)CO1",
    "target": "HCI01",
    "value.observed": 69.5
  },
  {
    "compound": "Cl.Cl.O=C1c2c(O)ccc(O)c2C(=O)c2c(NCCNCCO)ccc(NCCNCCO)c21 [Mitoxantrone HCl] + CC(C)C[C@H](NC(=O)[C@H](CCc1ccccc1)NC(=O)CN1CCOCC1)C(=O)N[C@@H](Cc1ccccc1)C(=O)N[C@@H](CC(C)C)C(=O)[C@@]1(C)CO1",
    "target": "HCI01",
    "value.observed": 74.1
  }
]

---

Tested on: HCI16 (cells of a triple-negative basal-like breast cancer xenograft)
Assay: cell viability (% of vehicle); higher = less cytotoxic
Conditions: 10 µM; 72 h
Examples of molecules with documented cell viability follow.

[
  {
    "molecule": "CC1(C)SC2C(NC(=O)C(NC(=O)N3CCN(S(C)(=O)=O)C3=O)c3ccccc3)C(=O)N2C1C(=O)O.[Na] (configuration not stated) [Mezlocillin Sodium]",
    "cell viability": 123
  },
  {
    "molecule": "CC(=O)OC1CCC2(C)C(=CCC3C2CCC2(C)C(c4cccnc4)=CCC32)C1 (configuration not stated) [Abiraterone acetate]",
    "cell viability": 98
  },
  {
    "molecule": "CCc1oc2ccccc2c1C(=O)c1cc(Br)c(O)c(Br)c1 [Benzbromarone]",
    "cell viability": 97
  },
  {
    "molecule": "N#CC(=C1SCC(c2ccc(Cl)cc2Cl)S1)n1ccnc1 (configuration not stated) [Luliconazole]",
    "cell viability": 72.4
  },
  {
    "molecule": "CCOC(=O)c1ncn2c1CN(C)C(=O)c1cc(F)ccc1-2 [Flumazenil]",
    "cell viability": 92.5
  },
  {
    "molecule": "CCOc1nc2cccc(C(=O)O)c2n1Cc1ccc(-c2ccccc2-c2nn[nH]n2)cc1 [Candesartan]",
    "cell viability": 109
  },
  {
    "molecule": "CN(C)C(=N)N=C(N)N.Cl [Metformin HCl]",
    "cell viability": 117
  },
  {
    "molecule": "O=C(Nc1ccccc1)c1ccccc1O [Salicylanilide]",
    "cell viability": 153
  },
  {
    "molecule": "OC(Cn1cncn1)(Cn1cncn1)c1ccc(F)cc1F [Fluconazole]",
    "cell viability": 119
  },
  {
    "molecule": "O=C(O)C1=CC(=NNc2ccc(S(=O)(=O)Nc3ccccn3)cc2)C=CC1=O [Sulfasalazine]",
    "cell viability": 180
  },
  {
    "molecule": "CC(C)C1CCC(C(=O)NC(Cc2ccccc2)C(=O)O)CC1 (configuration not stated) [Nateglinide]",
    "cell viability": 110
  },
  {
    "molecule": "Cc1cc(NS(=O)(=O)c2ccc(N)cc2)no1 [Sulfamethoxazole]",
    "cell viability": 154
  },
  {
    "molecule": "CCCc1cc(C(N)=S)ccn1 [Protionamide]",
    "cell viability": 112
  },
  {
    "molecule": "CC(C)(Oc1ccc(Cl)cc1)C(=O)O [Clofibric Acid]",
    "cell viability": 97.8
  },
  {
    "molecule": "NCCCC(O)(P(=O)([O-])O)P(=O)(O)O.[Na+] [Alendronate sodium]",
    "cell viability": 97.1
  },
  {
    "molecule": "NS(=O)(=O)Cc1noc2ccccc12 [Zonisamide]",
    "cell viability": 99.1
  },
  {
    "molecule": "CC(O)(P(=O)(O)O)P(=O)(O)O [Etidronate]",
    "cell viability": 92.3
  },
  {
    "molecule": "CN(C)c1nc(N(C)C)nc(N(C)C)n1 [Altretamine]",
    "cell viability": 108
  },
  {
    "molecule": "O=S(=O)([O-])CCSSCCS(=O)(=O)[O-].[Na+].[Na+] [Dimesna]",
    "cell viability": 124
  },
  {
    "molecule": "COc1ccccc1N1CCN(CCCNc2cc(=O)n(C)c(=O)n2C)CC1.Cl [Urapidil HCl]",
    "cell viability": 105
  },
  {
    "molecule": "Cl.c1ccc2c(CC3=NCCN3)cccc2c1 [Naphazoline HCl]",
    "cell viability": 93.3
  },
  {
    "molecule": "CCC1=CC2CN(C1)Cc1c([nH]c3ccccc13)C(C(=O)OC)(c1cc3c(cc1OC)N(C)C1C(O)(C(=O)OC)C(OC(C)=O)C4(CC)C=CCN5CCC31C54)C2 (configuration not stated) [Vinorelbine]",
    "cell viability": 167
  },
  {
    "molecule": "CO[C@@]1(NC(=O)[C@H](C(=O)[O-])c2ccc(O)cc2)C(=O)N2C(C(=O)[O-])=C(CSc3nnnn3C)CO[C@@H]21.[Na+].[Na+] [Moxalactam (sodium salt)]",
    "cell viability": 148
  },
  {
    "molecule": "CN1CCN(CCCN2c3ccccc3Sc3ccc(C(F)(F)F)cc32)CC1.Cl.Cl [Trifluoperazine 2HCl]",
    "cell viability": 54.1
  },
  {
    "molecule": "CCCCc1oc2ccccc2c1C(=O)c1cc(I)c(OCCN(CC)CC)c(I)c1.Cl [Amiodarone HCl]",
    "cell viability": 60
  },
  {
    "molecule": "CCCCOc1cc(C(=O)NCCN(CC)CC)c2ccccc2n1 [Dibucaine]",
    "cell viability": 135
  },
  {
    "molecule": "CC(C)(OCc1nn(Cc2ccccc2)c2ccccc12)C(=O)O [Bindarit]",
    "cell viability": 117
  },
  {
    "molecule": "CCC1(O)CC2CN(CCc3c([nH]c4ccccc34)C(C(=O)OC)(c3cc4c(cc3OC)N(C)C3C(O)(C(=O)OC)C(OC(C)=O)C5(CC)C=CCN6CCC43C65)C2)C1 (configuration not stated) [vinblastine]",
    "cell viability": 164
  },
  {
    "molecule": "C#CC1(O)CCC2C3CCC4=CC(=O)CCC4C3CCC21C (configuration not stated) [Norethindrone]",
    "cell viability": 128
  },
  {
    "molecule": "O=c1[nH]c(=O)n(C2CC(O)C(CO)O2)cc1C(F)(F)F (configuration not stated) [Triflurdine (Viroptic)]",
    "cell viability": 97.1
  },
  {
    "molecule": "CCNC1CC(N)C(OC2OC(CN)=CCC2N)C(O)C1OC1OCC(C)(O)C(NC)C1O.CCNC1CC(N)C(OC2OC(CN)=CCC2N)C(O)C1OC1OCC(C)(O)C(NC)C1O.O=S(=O)(O)O.O=S(=O)(O)O.O=S(=O)(O)O.O=S(=O)(O)O.O=S(=O)(O)O (configuration not stated) [Netilmicin Sulfate]",
    "cell viability": 138
  },
  {
    "molecule": "CC(C(=O)O)c1ccc2c(c1)[nH]c1ccc(Cl)cc12 (configuration not stated) [Carprofen]",
    "cell viability": 138
  }
]

---

Tested on: HCI13 (cells of an ER-positive luminal breast cancer xenograft)
Assay: cell viability (% of vehicle); higher = less cytotoxic
Conditions: 10 µM; 72 h

[
  {
    "molecule": "O=C([O-])CCCc1ccccc1.[Na+] [Sodium Phenylbutyrate]",
    "cell viability": 124
  },
  {
    "molecule": "CNCc1ccc(-c2[nH]c3cc(F)cc4c3c2CCNC4=O)cc1.O=P(O)(O)O",
    "cell viability": 145
  },
  {
    "molecule": "CC1C(=O)OC2CC34C5CC(C(C)(C)C)C36C(OC(=O)C6O)OC4(C(=O)O5)C21O (stereo unspecified) [Ginkgolide A]",
    "cell viability": 114
  },
  {
    "molecule": "CC(C)(C)NCC(O)c1ccc(O)c(CO)c1.O=S(=O)(O)O (stereo unspecified) [Salbutamol Sulfate]",
    "cell viability": 106
  },
  {
    "molecule": "NCCCC(O)(P(=O)([O-])O)P(=O)(O)O.O.O.O.[Na+] [Alendronate]",
    "cell viability": 106
  },
  {
    "molecule": "Nc1ccn(C2OC(CO)C(O)C2(F)F)c(=O)n1 (stereo unspecified)",
    "cell viability": 118
  },
  {
    "molecule": "CC1(C)SC2C(NC(=O)C(N)c3ccccc3)C(=O)N2C1C(=O)[O-].[Na+] (stereo unspecified)",
    "cell viability": 86.7
  },
  {
    "molecule": "COc1cc2ncnc(Nc3ccc(F)c(Cl)c3)c2cc1OCCCN1CCOCC1 [Gefitinib (ZD1839)]",
    "cell viability": 63.3
  },
  {
    "molecule": "CCN(Cc1ccncc1)C(=O)C(CO)c1ccccc1 (stereo unspecified) [Tropicamide]",
    "cell viability": 136
  },
  {
    "molecule": "COC(=O)Nc1nc2ccc(Sc3ccccc3)cc2[nH]1",
    "cell viability": 155
  },
  {
    "molecule": "CC(C(=O)O)c1ccc2c(c1)[nH]c1ccc(Cl)cc12 (stereo unspecified)",
    "cell viability": 102
  },
  {
    "molecule": "CCCCOc1cc(C(=O)NCCN(CC)CC)c2ccccc2n1",
    "cell viability": 135
  },
  {
    "molecule": "Cl.O=C1CN2Cc3c(ccc(Cl)c3Cl)NC2=N1 [Anagrelide HCl]",
    "cell viability": 128
  },
  {
    "molecule": "COc1ccc(C[C@H](N)C(=O)N[C@@H]2[C@H](O)[C@H](n3cnc4c(N(C)C)ncnc43)O[C@@H]2CO)cc1.Cl.Cl [Puromycin dihydrochloride]",
    "cell viability": 51.1
  },
  {
    "molecule": "CNCC(O)c1cccc(O)c1.Cl (stereo unspecified) [Phenylephrine HCl]",
    "cell viability": 78
  },
  {
    "molecule": "CCOc1ccc(NC(C)=O)cc1",
    "cell viability": 102
  }
]
